src = the supplement of paper PMC12076712

Kindly supply the reported pIC50 values for the records listed here.
Target: UniProtKB Q96PY6
Sequence (whole entry): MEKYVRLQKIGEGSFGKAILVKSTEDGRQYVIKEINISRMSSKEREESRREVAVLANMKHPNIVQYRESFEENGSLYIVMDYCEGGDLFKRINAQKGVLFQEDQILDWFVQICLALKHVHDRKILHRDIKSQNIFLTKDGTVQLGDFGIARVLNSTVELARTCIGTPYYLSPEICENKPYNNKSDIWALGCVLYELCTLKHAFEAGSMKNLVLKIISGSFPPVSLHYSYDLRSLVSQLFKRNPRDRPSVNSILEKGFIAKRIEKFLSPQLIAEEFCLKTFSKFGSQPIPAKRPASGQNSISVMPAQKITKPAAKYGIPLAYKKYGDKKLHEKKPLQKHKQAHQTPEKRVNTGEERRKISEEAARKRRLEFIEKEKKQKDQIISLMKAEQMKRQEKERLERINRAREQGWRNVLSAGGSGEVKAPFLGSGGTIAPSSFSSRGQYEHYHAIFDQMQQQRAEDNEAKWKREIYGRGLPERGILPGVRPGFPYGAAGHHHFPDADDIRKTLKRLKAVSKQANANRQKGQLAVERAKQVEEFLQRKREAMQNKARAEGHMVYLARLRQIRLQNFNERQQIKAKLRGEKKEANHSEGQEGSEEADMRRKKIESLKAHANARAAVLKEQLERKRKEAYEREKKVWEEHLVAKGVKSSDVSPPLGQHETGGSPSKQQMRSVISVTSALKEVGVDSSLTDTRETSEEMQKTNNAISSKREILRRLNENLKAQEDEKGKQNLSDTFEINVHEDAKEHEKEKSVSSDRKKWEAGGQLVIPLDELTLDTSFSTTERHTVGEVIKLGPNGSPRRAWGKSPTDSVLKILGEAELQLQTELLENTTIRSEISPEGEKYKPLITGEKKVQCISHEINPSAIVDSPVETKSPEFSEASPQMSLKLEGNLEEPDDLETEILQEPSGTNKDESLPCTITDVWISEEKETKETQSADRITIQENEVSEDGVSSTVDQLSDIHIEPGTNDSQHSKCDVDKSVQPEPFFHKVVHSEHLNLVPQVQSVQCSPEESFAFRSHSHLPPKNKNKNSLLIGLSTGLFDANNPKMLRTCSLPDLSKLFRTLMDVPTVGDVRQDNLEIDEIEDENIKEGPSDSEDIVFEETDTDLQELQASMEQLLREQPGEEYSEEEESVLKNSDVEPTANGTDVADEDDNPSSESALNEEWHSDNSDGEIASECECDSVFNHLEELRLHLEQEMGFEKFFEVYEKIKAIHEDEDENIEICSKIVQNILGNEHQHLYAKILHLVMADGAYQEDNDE
Experiment: pIC50, kinobeads binding competition
Conditions: cell material: Lysate mix

In the examples that follow, each entry is paired with its recorded pIC50.
1) O=C(NCCNC(=O)c1cc(Nc2cc(C3CC3)[nH]n2)nc(N2CCN(Cc3ccc(S(=O)(=O)F)cc3)CC2)n1)OC1CC/C=C/CCC1 (stereo not given)    < 4.52
2) C#CCNC(=O)c1cc(Nc2cc(C)[nH]n2)nc(N2CCN(Cc3ccc(S(=O)(=O)F)cc3)CC2)n1    < 4.52
3) Cc1cc(Nc2cc(C(=O)NCCNC(=O)OC3CC/C=C/CCC3)nc(N3CCN(Cc4ccc(S(=O)(=O)F)cc4)CC3)n2)n[nH]1 (stereo not given)    < 4.52
4) CCNC(=O)c1cc(Nc2cc(C)[nH]n2)nc(N2CCN(Cc3ccc(S(=O)(=O)F)cc3)CC2)n1    < 4.52

Query compound follows.
Record "CCNC(=O)c1cc(Nc2cc(C3CC3)[nH]n2)nc(N2CCN(Cc3ccc(S(=O)(=O)F)cc3)CC2)n1" has UniProtKB Q96PY6 pIC50 equal to 4.86

* * *

Kindly supply the reported pIC50 values for the records listed here.
Molecular target: STRADA (UniProt Q7RTN6)
Sequence (Q7RTN6 whole entry): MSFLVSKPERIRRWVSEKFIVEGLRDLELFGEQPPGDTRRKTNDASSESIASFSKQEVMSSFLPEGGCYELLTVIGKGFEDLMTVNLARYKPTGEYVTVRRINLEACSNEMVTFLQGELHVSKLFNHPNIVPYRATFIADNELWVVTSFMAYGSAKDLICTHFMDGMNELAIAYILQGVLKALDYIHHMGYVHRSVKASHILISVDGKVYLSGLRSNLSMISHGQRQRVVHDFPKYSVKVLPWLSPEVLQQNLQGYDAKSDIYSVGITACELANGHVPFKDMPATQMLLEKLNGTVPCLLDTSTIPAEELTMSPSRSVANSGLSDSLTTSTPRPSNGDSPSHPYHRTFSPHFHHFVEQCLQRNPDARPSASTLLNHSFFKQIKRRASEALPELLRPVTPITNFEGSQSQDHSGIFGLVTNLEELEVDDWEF
Assay: pIC50, kinobeads binding competition
Settings: cell material: Lysate mix
One number for each entry.

1) CCNC(=O)c1cc(Nc2cc(C3CC3)[nH]n2)nc(N2CCN(Cc3ccc(S(=O)(=O)F)cc3)CC2)n1    5.29

Input "C#CCNC(=O)c1cc(Nc2cc(C3CC3)[nH]n2)nc(N2CCN(Cc3ccc(S(=O)(=O)F)cc3)CC2)n1" . Output pIC50: 5.7

* * *

Target: UniProt Q8IVH8
Sequence (Q8IVH8 whole entry): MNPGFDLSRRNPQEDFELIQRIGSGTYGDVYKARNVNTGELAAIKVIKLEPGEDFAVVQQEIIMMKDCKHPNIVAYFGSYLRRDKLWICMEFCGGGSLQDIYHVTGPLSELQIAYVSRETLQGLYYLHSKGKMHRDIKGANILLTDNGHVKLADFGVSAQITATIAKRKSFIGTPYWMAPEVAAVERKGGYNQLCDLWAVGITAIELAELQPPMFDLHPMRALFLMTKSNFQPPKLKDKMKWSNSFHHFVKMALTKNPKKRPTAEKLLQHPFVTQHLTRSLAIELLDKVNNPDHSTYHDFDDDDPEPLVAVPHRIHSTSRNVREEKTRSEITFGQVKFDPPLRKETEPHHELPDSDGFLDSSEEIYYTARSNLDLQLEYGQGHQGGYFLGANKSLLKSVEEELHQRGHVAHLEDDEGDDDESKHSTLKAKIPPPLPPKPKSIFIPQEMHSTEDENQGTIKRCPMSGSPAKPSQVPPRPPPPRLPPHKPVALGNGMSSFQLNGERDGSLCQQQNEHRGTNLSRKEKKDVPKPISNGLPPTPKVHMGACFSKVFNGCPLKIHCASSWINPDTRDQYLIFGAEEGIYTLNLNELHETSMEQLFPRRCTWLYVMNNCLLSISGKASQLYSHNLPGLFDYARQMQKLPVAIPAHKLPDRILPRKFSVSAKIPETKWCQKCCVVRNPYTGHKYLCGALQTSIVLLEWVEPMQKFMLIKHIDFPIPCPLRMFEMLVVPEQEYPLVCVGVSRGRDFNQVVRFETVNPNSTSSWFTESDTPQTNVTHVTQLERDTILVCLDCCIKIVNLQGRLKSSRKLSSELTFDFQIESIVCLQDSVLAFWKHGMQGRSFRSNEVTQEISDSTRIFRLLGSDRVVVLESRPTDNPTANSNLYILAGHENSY
Test: pIC50, kinobeads binding competition
Conditions: cell material: Lysate mix
attribute measured: pIC50
Numbers only.

In the examples that follow, each entry is paired with its recorded pIC50.
1. C#CCNC(=O)c1cc(Nc2cc(C3CC3)[nH]n2)nc(N2CCN(Cc3ccc(S(=O)(=O)F)cc3)CC2)n1    5.43
2. C#CCNC(=O)c1cc(Nc2cc(C)[nH]n2)nc(N2CCN(Cc3ccc(S(=O)(=O)F)cc3)CC2)n1    4.65

Input "CCNC(=O)c1cc(Nc2cc(C3CC3)[nH]n2)nc(N2CCN(Cc3ccc(S(=O)(=O)F)cc3)CC2)n1" . Output pIC50: 5.11

* * *

Target: Hck (UniProt P08631)
Sequence (P08631 whole entry, looked up): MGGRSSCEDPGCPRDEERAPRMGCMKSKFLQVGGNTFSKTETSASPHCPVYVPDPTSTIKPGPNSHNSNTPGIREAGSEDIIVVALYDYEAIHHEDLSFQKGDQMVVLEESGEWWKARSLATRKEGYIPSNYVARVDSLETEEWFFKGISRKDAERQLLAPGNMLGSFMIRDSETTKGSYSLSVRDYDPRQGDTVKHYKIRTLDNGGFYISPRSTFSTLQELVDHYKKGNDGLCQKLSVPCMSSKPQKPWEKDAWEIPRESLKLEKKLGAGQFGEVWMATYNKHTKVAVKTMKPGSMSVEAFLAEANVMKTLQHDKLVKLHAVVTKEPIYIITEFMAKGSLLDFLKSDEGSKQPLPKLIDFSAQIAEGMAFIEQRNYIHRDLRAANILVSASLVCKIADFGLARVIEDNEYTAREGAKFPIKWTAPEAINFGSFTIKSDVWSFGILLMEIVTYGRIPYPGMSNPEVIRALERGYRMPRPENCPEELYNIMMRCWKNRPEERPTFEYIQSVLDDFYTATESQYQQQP
Assay: pIC50, kinobeads binding competition
Conditions: cell material: Lysate mix
Kindly supply the reported pIC50 values for the records listed here.
Give bare numbers.

In the examples that follow, each entry is paired with its recorded pIC50.
1) C#CCNC(=O)c1cc(Nc2cc(C3CC3)[nH]n2)nc(N2CCN(Cc3ccc(S(=O)(=O)F)cc3)CC2)n1    5.86
2) CCNC(=O)c1cc(Nc2cc(C3CC3)[nH]n2)nc(N2CCN(Cc3ccc(S(=O)(=O)F)cc3)CC2)n1    5.8
3) CCNC(=O)c1cc(Nc2cc(C)[nH]n2)nc(N2CCN(Cc3ccc(S(=O)(=O)F)cc3)CC2)n1    5.62

Query molecule follows.
Record "C#CCNC(=O)c1cc(Nc2cc(C)[nH]n2)nc(N2CCN(Cc3ccc(S(=O)(=O)F)cc3)CC2)n1" has Hck (UniProt P08631) pIC50 equal to 5.4

* * *

Molecular target: UniProt Q00536
Sequence (Q00536 whole entry): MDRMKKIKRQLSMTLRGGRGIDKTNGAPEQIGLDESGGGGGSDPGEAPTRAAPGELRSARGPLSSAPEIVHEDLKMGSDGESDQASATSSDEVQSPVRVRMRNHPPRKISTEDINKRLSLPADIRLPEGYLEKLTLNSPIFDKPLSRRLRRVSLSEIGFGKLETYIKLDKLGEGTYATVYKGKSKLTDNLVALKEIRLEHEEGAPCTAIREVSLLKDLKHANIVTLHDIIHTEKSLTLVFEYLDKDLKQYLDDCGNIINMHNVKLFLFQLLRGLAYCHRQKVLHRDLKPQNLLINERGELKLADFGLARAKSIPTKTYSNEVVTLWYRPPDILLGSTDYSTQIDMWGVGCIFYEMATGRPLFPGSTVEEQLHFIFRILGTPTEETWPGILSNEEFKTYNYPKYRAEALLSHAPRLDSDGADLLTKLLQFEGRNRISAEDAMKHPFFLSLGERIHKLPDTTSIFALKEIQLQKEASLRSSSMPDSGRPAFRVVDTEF
Test: pIC50, kinobeads binding competition
Details: cell material: Lysate mix
attribute measured: pIC50
Give bare numbers.

In the examples that follow, each entry is paired with its recorded pIC50.
1. C#CCNC(=O)c1cc(Nc2cc(C3CC3)[nH]n2)nc(N2CCN(Cc3ccc(S(=O)(=O)F)cc3)CC2)n1    5.89
2. CCNC(=O)c1cc(Nc2cc(C3CC3)[nH]n2)nc(N2CCN(Cc3ccc(S(=O)(=O)F)cc3)CC2)n1    5.76

Query compound follows.
Input "CCNC(=O)c1cc(Nc2cc(C)[nH]n2)nc(N2CCN(Cc3ccc(S(=O)(=O)F)cc3)CC2)n1" . Output pIC50: 4.76

* * *

Target: MAST3 (UniProt O60307)
Sequence (O60307 whole entry): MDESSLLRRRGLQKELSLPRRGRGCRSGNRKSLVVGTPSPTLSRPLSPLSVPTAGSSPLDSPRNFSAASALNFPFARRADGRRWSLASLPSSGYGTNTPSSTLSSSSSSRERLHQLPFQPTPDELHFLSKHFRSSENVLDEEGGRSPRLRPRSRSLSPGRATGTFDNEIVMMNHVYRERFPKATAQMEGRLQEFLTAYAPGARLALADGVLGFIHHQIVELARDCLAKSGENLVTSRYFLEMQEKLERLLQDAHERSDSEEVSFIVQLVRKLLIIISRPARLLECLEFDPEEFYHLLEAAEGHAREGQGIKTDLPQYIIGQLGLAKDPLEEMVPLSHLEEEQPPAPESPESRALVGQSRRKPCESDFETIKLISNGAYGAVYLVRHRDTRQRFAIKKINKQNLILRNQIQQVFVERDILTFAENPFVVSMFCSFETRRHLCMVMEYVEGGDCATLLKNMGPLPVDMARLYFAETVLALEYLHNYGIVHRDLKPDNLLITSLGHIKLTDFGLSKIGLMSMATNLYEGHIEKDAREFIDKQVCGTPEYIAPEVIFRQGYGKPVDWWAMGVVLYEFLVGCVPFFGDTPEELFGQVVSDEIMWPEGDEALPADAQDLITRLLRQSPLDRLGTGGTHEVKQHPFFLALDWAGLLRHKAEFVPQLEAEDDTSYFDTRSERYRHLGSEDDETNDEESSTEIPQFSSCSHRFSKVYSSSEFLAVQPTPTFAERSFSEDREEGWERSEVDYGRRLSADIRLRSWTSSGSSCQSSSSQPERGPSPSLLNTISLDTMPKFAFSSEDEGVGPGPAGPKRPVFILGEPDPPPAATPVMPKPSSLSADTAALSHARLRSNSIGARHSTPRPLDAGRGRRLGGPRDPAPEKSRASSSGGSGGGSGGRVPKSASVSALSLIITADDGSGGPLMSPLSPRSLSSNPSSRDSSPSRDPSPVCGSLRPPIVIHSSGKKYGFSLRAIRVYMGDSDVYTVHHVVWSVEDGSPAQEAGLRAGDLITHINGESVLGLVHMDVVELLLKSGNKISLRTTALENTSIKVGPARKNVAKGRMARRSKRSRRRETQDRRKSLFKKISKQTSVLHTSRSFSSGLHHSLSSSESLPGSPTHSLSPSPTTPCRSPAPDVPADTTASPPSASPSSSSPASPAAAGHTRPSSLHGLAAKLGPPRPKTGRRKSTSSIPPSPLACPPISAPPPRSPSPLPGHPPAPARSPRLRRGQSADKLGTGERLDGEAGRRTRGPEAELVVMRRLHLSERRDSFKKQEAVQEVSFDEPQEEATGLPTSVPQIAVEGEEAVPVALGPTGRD
Assay: pIC50, kinobeads binding competition
Conditions: cell material: Lysate mix
Rule: pIC50 of 5 or more gives 1 (yes); anything lower gives 0 (no).

The examples below pair each entry with its known result.
1. CCNC(=O)c1cc(Nc2cc(C3CC3)[nH]n2)nc(N2CCN(Cc3ccc(S(=O)(=O)F)cc3)CC2)n1    1 (yes)
2. Cc1cc(Nc2cc(C(=O)NCCNC(=O)OC3CC/C=C/CCC3)nc(N3CCN(Cc4ccc(S(=O)(=O)F)cc4)CC3)n2)n[nH]1 (stereo unspecified)    0 (no)
3. C#CCNC(=O)c1cc(Nc2cc(C)[nH]n2)nc(N2CCN(Cc3ccc(S(=O)(=O)F)cc3)CC2)n1    1 (yes)
4. C#CCNC(=O)c1cc(Nc2cc(C3CC3)[nH]n2)nc(N2CCN(Cc3ccc(S(=O)(=O)F)cc3)CC2)n1    1 (yes)

# ---- query compound ----
Task item: Decide: is the reported value of pIC50 for "CCNC(=O)c1cc(Nc2cc(C)[nH]n2)nc(N2CCN(Cc3ccc(S(=O)(=O)F)cc3)CC2)n1" equal to or greater than 5?
Reply: 1 (yes)

* * *

Target: ACVR1 (UniProt Q04771)
Sequence (Q04771 whole entry): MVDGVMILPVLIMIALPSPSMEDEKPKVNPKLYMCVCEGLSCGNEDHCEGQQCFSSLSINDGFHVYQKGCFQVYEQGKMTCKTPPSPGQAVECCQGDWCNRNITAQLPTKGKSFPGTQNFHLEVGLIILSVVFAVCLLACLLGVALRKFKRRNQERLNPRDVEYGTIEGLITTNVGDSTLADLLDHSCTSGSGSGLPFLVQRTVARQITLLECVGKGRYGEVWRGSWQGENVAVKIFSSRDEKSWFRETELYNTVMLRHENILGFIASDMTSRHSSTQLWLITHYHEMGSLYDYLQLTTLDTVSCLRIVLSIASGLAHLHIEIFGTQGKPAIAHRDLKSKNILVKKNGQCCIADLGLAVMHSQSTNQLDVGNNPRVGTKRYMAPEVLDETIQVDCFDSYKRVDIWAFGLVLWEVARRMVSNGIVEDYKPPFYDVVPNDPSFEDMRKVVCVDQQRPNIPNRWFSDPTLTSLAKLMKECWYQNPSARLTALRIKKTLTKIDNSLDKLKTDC
Assay: pIC50, kinobeads binding competition
Conditions: cell material: Lysate mix
Kindly supply the reported pIC50 values for the records listed here.

1) CCNC(=O)c1cc(Nc2cc(C)[nH]n2)nc(N2CCN(Cc3ccc(S(=O)(=O)F)cc3)CC2)n1    < 4.52
2) O=C(NCCNC(=O)c1cc(Nc2cc(C3CC3)[nH]n2)nc(N2CCN(Cc3ccc(S(=O)(=O)F)cc3)CC2)n1)OC1CC/C=C/CCC1 (stereo unspecified)    < 4.52
3) CCNC(=O)c1cc(Nc2cc(C3CC3)[nH]n2)nc(N2CCN(Cc3ccc(S(=O)(=O)F)cc3)CC2)n1    4.74
4) Cc1cc(Nc2cc(C(=O)NCCNC(=O)OC3CC/C=C/CCC3)nc(N3CCN(Cc4ccc(S(=O)(=O)F)cc4)CC3)n2)n[nH]1 (stereo unspecified)    < 4.52
5) C#CCNC(=O)c1cc(Nc2cc(C3CC3)[nH]n2)nc(N2CCN(Cc3ccc(S(=O)(=O)F)cc3)CC2)n1    5.14

Query compound follows.
Input "C#CCNC(=O)c1cc(Nc2cc(C)[nH]n2)nc(N2CCN(Cc3ccc(S(=O)(=O)F)cc3)CC2)n1" . Output pIC50: < 4.52
